experiment: THP-1 macrophage infection assay: cytotoxicity to host cells
assay-setup: human
Examples of compounds with documented CC50 at 72 h follow.

# compound, comparator, CC50 at 72 h / µM
rows = [
    ("Cn1c(CC(=O)NNC(=O)c2ccc3ccccc3c2)nc2ccccc21 [Compound 13a]", ">", 100),
    ("Cn1c(CC(=O)NNC(=O)c2ccc(-c3ccc(Cl)cc3)cn2)nc2ccccc21 [Compound 17c]", "=", 73),
    ("Cn1c(CC(=O)NNC(=O)c2ccccc2)nc2ccccc21 [Compound 13c]", ">", 100),
    ("COc1cccc(-c2ccc(C(=O)NNC(=O)Cc3nc4ccccc4n3C)nc2)c1 [Compound 17g]", ">", 100),
    ("Cn1c(CC(=O)NNC(=O)c2ccc(-c3ccccc3)cn2)nc2ccccc21 [Compound 13e]", "=", 49),
]

----------
experiment: Metabolic stability of compound 1
Type: in vitro ADME
assay-setup: read-out: metabolic stability half-life t1/2

# item-smiles, half-life, h
measured = [
    ("Cn1c(CC(=O)NNC(=O)c2ccc3ccccc3n2)nc2ccccc21", 1.33),
]

----------
System: intracellular L. donovani in THP-1 macrophage host cells
experiment: THP-1 macrophage infection assay: anti L. donovani activity
assay-setup: THP-1 CC50 / L. donovani IC50
Quick rule for you: SI (CC50/IC50) at 100 or higher means Fulfilled, lower means Not fulfilled.

# compound, discrete-label
measured = [
    ("COc1ccc(-c2ccc(C(=O)NNC(=O)Cc3nc4ccccc4n3C)nc2)cc1 [Compound 17h]", "Fulfilled"),
    ("Cn1c(CC(=O)NNC(=O)c2ccc(-c3ccccc3)cn2)nc2ccccc21 [Compound 13e]", "Not fulfilled"),
    ("Cn1c(CC(=O)NNC(=O)c2ccccn2)nc2ccccc21 [Compound 13b]", "Not fulfilled"),
    ("Cn1c(CC(=O)NNC(=O)c2ccc(-c3ccc(C#N)cc3)cn2)nc2ccccc21 [Compound 17e]", "Fulfilled"),
    ("Cc1cccc(-c2ccc(C(=O)NNC(=O)Cc3nc4ccccc4n3C)nc2)c1 [Compound 17j]", "Fulfilled"),
    ("Cn1c(CC(=O)NNC(=O)c2ccc(-c3ccc(Cl)cc3)cn2)nc2ccccc21 [Compound 17c]", "Not fulfilled"),
    ("Cn1c(CC(=O)NNC(=O)c2ccc(-c3cccc(Cl)c3)cn2)nc2ccccc21 [Compound 17b]", "Not fulfilled"),
    ("O=C(Cc1nc2ccccc2o1)NNC(=O)c1ccc2ccccc2n1 [Compound 5c]", "Not fulfilled"),
    ("COc1cccc(-c2ccc(C(=O)NNC(=O)Cc3nc4ccccc4n3C)nc2)c1 [Compound 17g]", "Fulfilled"),
    ("Cc1ccccc1-c1ccc(C(=O)NNC(=O)Cc2nc3ccccc3n2C)nc1 [Compound 17i]", "Fulfilled"),
    ("Cc1ccc(-c2ccc(C(=O)NNC(=O)Cc3nc4ccccc4n3C)nc2)cc1 [Compound 17k]", "Fulfilled"),
    ("COc1ccccc1-c1ccc(C(=O)NNC(=O)Cc2nc3ccccc3n2C)nc1 [Compound 17f]", "Not fulfilled"),
    ("Cn1c(CC(=O)NNC(=O)c2ccc(-c3ccccc3Cl)cn2)nc2ccccc21 [Compound 17a]", "Fulfilled"),
]

----------
experiment: THP-1 macrophage infection assay: cytotoxicity to host cells
assay-setup: human
A collection of molecules and their measured CC50 at 72 h

# molecule, comparator, CC50 at 72 h (µM)
rows = [
    ("Cn1c(CC(=O)NNC(=O)c2ccccn2)nc2ccccc21 [Compound 13b]", "=", 62),
    ("O=C(Cc1nc2ccccc2s1)NNC(=O)c1ccc2ccccc2n1 [Compound 5b]", ">", 100),
    ("Cn1c(CC(=O)NNC(=O)c2ccc(-c3cccc(C#N)c3)cn2)nc2ccccc21 [Compound 17d]", ">", 100),
    ("Cc1cccc(-c2ccc(C(=O)NNC(=O)Cc3nc4ccccc4n3C)nc2)c1 [Compound 17j]", "=", 52),
    ("Cn1c(CC(=O)NNC(=O)c2cccc(-c3ccccc3)n2)nc2ccccc21 [Compound 13d]", ">", 100),
    ("Cn1c(CC(=O)NNC(=O)c2ccc(-c3cccc(Cl)c3)cn2)nc2ccccc21 [Compound 17b]", "=", 94),
    ("COc1ccc(-c2ccc(C(=O)NNC(=O)Cc3nc4ccccc4n3C)nc2)cc1 [Compound 17h]", ">", 100),
    ("Cc1ccccc1-c1ccc(C(=O)NNC(=O)Cc2nc3ccccc3n2C)nc1 [Compound 17i]", "=", 67),
    ("Cn1c(CC(=O)NNC(=O)c2ccc(-c3ccccc3Cl)cn2)nc2ccccc21 [Compound 17a]", ">", 100),
    ("Cn1c(CC(=O)NNC(=O)c2ccc3ccccc3n2)nc2ccccc21 [Compound 1]", ">", 100),
    ("O=C(Cc1nc2ccccc2o1)NNC(=O)c1ccc2ccccc2n1 [Compound 5c]", "=", 54),
    ("Cc1ccc(-c2ccc(C(=O)NNC(=O)Cc3nc4ccccc4n3C)nc2)cc1 [Compound 17k]", ">", 100),
    ("O=C(Cc1nc2ccccc2[nH]1)NNC(=O)c1ccc2ccccc2n1 [Compound 5a]", ">", 100),
    ("COc1ccccc1-c1ccc(C(=O)NNC(=O)Cc2nc3ccccc3n2C)nc1 [Compound 17f]", "=", 19),
    ("Cn1c(CC(=O)NNC(=O)c2ccc(-c3ccc(C#N)cc3)cn2)nc2ccccc21 [Compound 17e]", "=", 96),
]
